Test: Toxic dose was evaluated by neurological toxicity (the rotarod test)
Type: organism-based
Details: mouse, in vivo
Listed below: TD50 values for each entry.

>  <molecule>
O=C1CNC(=O)N1Cc1ccccc1

>  <TD50 / mg/kg>
224

$$$$
>  <molecule>
Oc1nccn1-c1ccccc1

>  <TD50 / mg/kg>
211

$$$$
>  <molecule>
CN1C(=O)NC(c2ccccc2)C1=O (stereo unspecified)

>  <TD50 / mg/kg>
271

$$$$
>  <molecule>
O=C1NC(=O)C(c2ccccc2)N1 (stereo unspecified)

>  <TD50 / mg/kg>
399

$$$$
>  <molecule>
Cc1cn(Cc2ccccc2)c(O)n1

>  <TD50 / mg/kg>
268

$$$$
>  <molecule>
CC1(C)NC(=O)N(CCc2ccccc2)C1=O

>  <TD50 / mg/kg>
243

$$$$

* * *

Organism: Mus musculus
Assay: Effective dose was evaluated by maximal electroshock seizure (MES) test
Format: functional
# note: boundary value 90 mg/kg maps to Not fulfilled; ED50 below it maps to Fulfilled

>  <molecule>
NC(=O)NC(=O)Cc1ccccc1 [PHENACEMIDE]

>  <assignedLabel>
Fulfilled

$$$$
>  <molecule>
CN1C(=O)NC(c2ccccc2)C1=O (stereo not given)

>  <assignedLabel>
Fulfilled

$$$$
>  <molecule>
Oc1nccn1-c1ccccc1

>  <assignedLabel>
Not fulfilled

$$$$
>  <molecule>
CCC1(c2ccccc2)NC(=O)N(C)C1=O (stereo not given)

>  <assignedLabel>
Fulfilled

$$$$
>  <molecule>
CC(=O)NC(C)C(=O)NCc1ccccc1 (stereo not given)

>  <assignedLabel>
Fulfilled

$$$$
>  <molecule>
O=C1CNC(=O)N1Cc1ccccc1

>  <assignedLabel>
Fulfilled

$$$$
>  <molecule>
CC1(C)NC(=O)N(CCc2ccccc2)C1=O

>  <assignedLabel>
Not fulfilled

$$$$
>  <molecule>
O=C1NC(=O)C(c2ccccc2)(c2ccccc2)N1

>  <assignedLabel>
Fulfilled

$$$$
>  <molecule>
O=C1NC(=O)C(c2ccccc2)N1 (stereo not given)

>  <assignedLabel>
Not fulfilled

$$$$
